- Target: recombinant human enteropeptidase (Homo sapiens (Human), UniProt P98073)
- Sequence (P98073 whole entry): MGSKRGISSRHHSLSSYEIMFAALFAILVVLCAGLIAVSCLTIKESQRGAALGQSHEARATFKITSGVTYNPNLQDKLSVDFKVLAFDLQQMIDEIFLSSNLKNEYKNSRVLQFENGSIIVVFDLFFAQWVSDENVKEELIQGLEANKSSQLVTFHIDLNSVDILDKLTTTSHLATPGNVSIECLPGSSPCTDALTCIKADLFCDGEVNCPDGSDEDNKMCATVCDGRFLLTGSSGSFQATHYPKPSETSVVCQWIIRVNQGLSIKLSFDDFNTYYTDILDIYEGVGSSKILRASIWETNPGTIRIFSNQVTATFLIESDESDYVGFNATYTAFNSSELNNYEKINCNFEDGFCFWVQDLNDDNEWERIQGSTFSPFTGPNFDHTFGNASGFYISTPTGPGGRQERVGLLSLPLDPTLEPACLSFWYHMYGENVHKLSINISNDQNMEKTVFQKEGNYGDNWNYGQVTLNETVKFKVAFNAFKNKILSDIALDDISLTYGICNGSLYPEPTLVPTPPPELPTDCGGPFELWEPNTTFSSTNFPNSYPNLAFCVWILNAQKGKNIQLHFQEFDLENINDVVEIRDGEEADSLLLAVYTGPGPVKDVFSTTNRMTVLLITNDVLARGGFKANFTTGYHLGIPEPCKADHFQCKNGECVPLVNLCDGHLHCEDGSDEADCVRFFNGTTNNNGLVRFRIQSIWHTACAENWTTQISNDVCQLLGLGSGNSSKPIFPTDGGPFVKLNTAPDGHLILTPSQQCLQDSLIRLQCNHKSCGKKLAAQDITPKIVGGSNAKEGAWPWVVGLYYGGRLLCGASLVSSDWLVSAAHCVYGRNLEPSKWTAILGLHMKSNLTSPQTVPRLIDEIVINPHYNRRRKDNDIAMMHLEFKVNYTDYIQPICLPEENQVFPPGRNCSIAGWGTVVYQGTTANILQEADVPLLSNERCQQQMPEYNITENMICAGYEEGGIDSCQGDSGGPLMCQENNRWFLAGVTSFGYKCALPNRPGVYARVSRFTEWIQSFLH
- Assay: Measurement of enteropeptidase inhibitory activity
- Condition details: substrate Gly-Asp-Asp-Asp-Asp-Lys-β-Naphtylamide, Tris-HCl pH 8.0, Dixon plot
pKi: −log10 of the molar value.
Outcome measure: pKi

Example cases with answers are listed next.
Cpd smiles | pKi
CCC(CC)(Cc1ccc(C(=O)Oc2ccc(C(=N)N)cc2F)s1)C(=O)N1CC(C(=O)O)C1 | 9.00
CCC(CC)(Cc1ccc(C(=O)Oc2ccc(C(=N)N)cc2F)s1)C(=O)Nc1ccc(C(=O)O)c(C(=O)O)c1 | 9.26
CC(C)(Cc1ccc(C(=O)Oc2ccc(C(=N)N)cc2F)s1)C(=O)N1CC[C@H](C(=O)O)C1 | 9.05
CC(C)(Cc1ccc(C(=O)Oc2ccc(C(=N)N)cc2F)s1)C(=O)N[C@H](C(=O)O)c1ccc(O)cc1 | 9.17
CCC(CC)(Cc1ccc(C(=O)Oc2ccc(C(=N)N)cc2F)s1)C(=O)N[C@@H](Cc1nn[nH]n1)C(=O)O | 9.62

(I) CC(C)(Cc1ccc(C(=O)Oc2ccc(C(=N)N)cc2F)s1)C(=O)N1C[C@H](O)C[C@H]1C(=O)O
(II) CCC(CC)(Cc1ccc(C(=O)Oc2ccc(C(=N)N)cc2F)s1)C(=O)NCC(=O)O
Q: Among I and II , which shows a numerically higher pKi result? Mark your answer with the label of the selected entry.
A: I
